- System: Plasmodium falciparum
- Assay summary: GSK_TCMDC: Inhibition of Plasmodium falciparum 3D7 in whole red blood cells, using parasite LDH activity as an index of growth. Test compounds present at 2uM
- Assay type: functional
Experimental readout: Inhibition (%)
Unit % implied. Number only.

Q. Fill blank: measured Inhibition of the compound `Cc1[nH]c(C)c(-c2ccc(OCc3cc(C(F)(F)F)cc(C(F)(F)F)c3)nc2)c(=O)c1Cl` is ____.
A. 98

Q. Fill blank: measured Inhibition of the compound `COc1cccc(Cn2ccc3c4c(N)nc(N)nc4ccc32)c1` is ____.
A. 99

Q. Fill blank: measured Inhibition of the compound `CCc1cn2c3c(cc(C(=O)N[C@@H](Cc4ccccc4)[C@H](O)CNCc4ccc(C)cc4)cc13)N(C)S(=O)(=O)CC2.O=CO` is ____.
A. 99

Q. Fill blank: measured Inhibition of the compound `COc1cc(NC(=O)/C=C/c2ccccc2OC(F)(F)F)cc(OCCN2CCN(CCN3CCOCC3)CC2)c1.O=C(O)C(=O)O` is ____.
A. 98

Q. Fill blank: measured Inhibition of the compound Cc1ccccc1/N=C1\NC(=S)N(c2cccc(C(F)(F)F)c2)C12CCC(C(C)(C)C)CC2 (centres undefined) is ____.
A. 95

Q. Fill blank: measured Inhibition of the compound `COc1cccc(-c2nn(C)c3sc(C(=O)Nc4cccnc4)cc23)c1` is ____.
A. 86

Q. Fill blank: measured Inhibition of the compound `O=C(NC1CCN(CCCc2ccccc2)CC1)c1ccc(-c2cccc(C(F)(F)F)c2)s1.O=C(O)C(F)(F)F` is ____.
A. 95

Q. Fill blank: measured Inhibition of the compound `O=C(Nc1ccc(C(F)(F)F)cc1)NC1CCN(c2ccnc3ccccc23)CC1.O=C(O)C(F)(F)F` is ____.
A. 100

Q. Fill blank: measured Inhibition of the compound `O=C(/C=C/c1ccc(Cl)c(Cl)c1)NCCCCN1CCCN(C(=O)Nc2ccc(F)c(Cl)c2)CC1` is ____.
A. 87

* * *

- System: Plasmodium falciparum
- Assay summary: GSK_TCMDC: Inhibition of Plasmodium falciparum 3D7 in whole red blood cells, using parasite LDH activity as an index of growth. Test compounds present at 2uM
- Type: functional
Please respond with reported Inhibition for every item in the list.
Unit % implied. Number only.

Q. Observed Inhibition on Plasmodium falciparum for CC(C)C1c2ccc(O)cc2CC2C(=O)N(C3CCCCC3)C(=O)N21 (stereo not given) , please.
A. 95

Q. Observed Inhibition on Plasmodium falciparum for `O=C(/C=C/c1ccc(Cl)c(Cl)c1)NCCCCCCN1CCCN(C(=O)Nc2ccc(Cl)c(Cl)c2)CC1` , please.
A. 100

Q. Observed Inhibition on Plasmodium falciparum for `CC(=O)Nc1ccc(CN(Cc2ccc(OC(C)(C)C)cc2)Cc2ccc3c(c2)OCCO3)cc1` , please.
A. 91

Q. Observed Inhibition on Plasmodium falciparum for `COc1ccc(CNCCCCCNCc2ccc(Cl)c(Cl)c2)cc1Cl` , please.
A. 98

Q. Observed Inhibition on Plasmodium falciparum for `Clc1ccc2c(NCc3ccc4c(c3)OCO4)ccnc2c1` , please.
A. 100

Q. Observed Inhibition on Plasmodium falciparum for `COc1cc(C)nc2ccc(NC(=O)Nc3ccccc3[N+](=O)[O-])cc12` , please.
A. 100

Q. Observed Inhibition on Plasmodium falciparum for `COc1ccccc1CCNc1nc(C)cc(N[C@@H](CC(C)C)C(=O)NCCc2ccccc2)n1.O=C(O)C(F)(F)F` , please.
A. 97

Q. Observed Inhibition on Plasmodium falciparum for `O=C(/C=C/c1ccc(Cl)cc1)NCCCCCN1CCN(C(=O)C=Cc2ccc(Cl)c(Cl)c2)CC1.O=C(O)C(F)(F)F` , please.
A. 92

Q. Observed Inhibition on Plasmodium falciparum for `CS(=O)(=O)O.O=[N+]([O-])c1ccc(CNCCCCCCNCc2ccc([N+](=O)[O-])c3ccccc23)c2ccccc12` , please.
A. 100

Q. Observed Inhibition on Plasmodium falciparum for `Cc1ccc(-c2noc(COc3ccccc3C(=O)NC3CCCC3)n2)cc1` , please.
A. 89

Q. Observed Inhibition on Plasmodium falciparum for `COc1cc2c(cc1S(=O)(=O)c1ccc(NC(=O)c3cc4ccccc4s3)cc1)CCN(C)CC2` , please.
A. 100

Q. Observed Inhibition on Plasmodium falciparum for `O=C(NCCN1CCOCC1)c1ccc(O)c(-c2cccc(C(F)(F)F)c2)c1` , please.
A. 95

Q. Observed Inhibition on Plasmodium falciparum for CC(ON1C(N)=NC(N)=NC1(C)C)c1ccccc1 (stereo not given) , please.
A. 96

Q. Observed Inhibition on Plasmodium falciparum for `Cc1cc(O)nc(NC#N)n1` , please.
A. 99

Q. Observed Inhibition on Plasmodium falciparum for `O=C(Nc1ccc(-c2cccc(-c3nc4cc(C(F)(F)F)ccc4[nH]3)c2)cc1)c1ccoc1` , please.
A. 96

Q. Observed Inhibition on Plasmodium falciparum for CCCCCN1CCCC(NS(=O)(=O)c2ccc(C(=O)Nc3cccc(C(F)(F)F)c3)cc2)C1.O=C(O)C(F)(F)F (stereo not given) , please.
A. 97

Q. Observed Inhibition on Plasmodium falciparum for `COc1ccc(-n2ccnc2SCC(=O)Nc2cc(C)ccc2C)c(OC)c1` , please.
A. 94

Q. Observed Inhibition on Plasmodium falciparum for `CCN(CC)/C(=N/C(=N)Nc1ccc(Br)cc1)NCCCCCCN/C(=N\C(=N)Nc1ccc(Br)cc1)N(CC)CC` , please.
A. 96

Q. Observed Inhibition on Plasmodium falciparum for CCNc1cc(C(=O)NC(Cc2ccccc2)C(O)CNC2CCSCC2)cc(N2CCCC2=O)c1 (stereo not given) , please.
A. 99

Q. Observed Inhibition on Plasmodium falciparum for `O=C(O)C(F)(F)F.c1cc(-c2ccc(CNCc3ccsc3)cc2)cc(-c2nc3ccccc3[nH]2)c1` , please.
A. 100
